Tested on: OVCAR-5 ovarian
Assay: NCI-60 one-dose screen, 48 h
Details: 10 µM unless noted
The panel holds about 83,000 compounds, 20% with a hit somewhere; the sample as a whole holds those more often. Calls of active or inactive are those of the source. Rule for the calls: active = growth percent below 10; inactive = the rest.
One label from this list, please: T (active), F (inactive)

See these solved cases before continuing.
{"record smiles": "CC#CC(=O)N1CCC[C@H]1c1nc(-c2ccc(C(=O)Nc3ccccn3)cc2)c2c(N)nccn12", "experimental system": "OVCAR-5 ovarian", "class label": "F"}
{"record smiles": "CN1C/C=C\\CCOc2cccc(c2)-c2ccnc(n2)Nc2cccc(c2)C1", "experimental system": "OVCAR-5 ovarian", "class label": "T"}
{"record smiles": "O=C(Nc1ccc(C(=O)Nc2ccc(C3=NCCCN3)cc2)cc1)Nc1ccc(C2=NCCCN2)cc1", "experimental system": "OVCAR-5 ovarian", "class label": "F"}

Task item: Field: outcome | Entry: O=c1[nH]c([C@@H]2CCCN2)nc2c1oc1ccc(Cl)cc12
Reply: F

Task item: Field: outcome | Entry: COc1cnc2c(c1)C(=O)c1c-2n(CCCn2ccnc2)c(=O)c2cc(Cl)ccc12
Reply: F

Task item: Field: outcome | Entry: COc1cc2nc(Nc3cccc(Cl)c3)nc(N)c2cc1OC
Reply: F

Task item: Field: outcome | Entry: COC(=O)N[C@@H](C)CNc1nccc(-c2cn(C(C)C)nc2-c2cc(Cl)cc(NS(C)(=O)=O)c2F)n1
Reply: F

Task item: Field: outcome | Entry: COC(=O)[C@]12CC[C@@H](C)[C@H](C)[C@@H]1C1=CC[C@@H]3[C@@]4(C)C(C=O)=C[C@@](C)(COS(C)(=O)=O)C4=CC[C@@]3(C)[C@]1(C)CC2
Reply: T

---

Test system: RPMI-8226 leukemia
Experiment: NCI-60 one-dose screen, 48 h
Conditions: 10 µM unless noted
About 83,000 compounds went through this panel and 20% of them were active in at least one assay; those are over-represented in the sample as a whole. Active and inactive are the calls of the source. The calls were made as follows: active = growth percent below 10; inactive = the rest.
One label from this list, please: active, inactive

See these solved cases before continuing.
{"molecule": "COc1cc(NCCCN)c2ncccc2c1", "class label": "inactive"}
{"molecule": "CCOC(=O)C1=C(C)NC(=O)NC1c1cc(=O)oc2ccc(C)cc12 (stereo not drawn)", "class label": "inactive"}
{"molecule": "C/C(=C(/c1ccc(Cl)cc1)c1ccc(OCCN2CCCCCC2)cc1)c1ccccc1", "class label": "inactive"}
{"molecule": "COC(=O)[C@H](Cc1ccc(O)cc1)NC(=O)[C@@H](OC)[C@@H]1Cc2cc3cc(OC4CC(OC5CC(O)C(O)C(C)O5)C(O)C(C)O4)c(C)c(O)c3c(O)c2C(=O)[C@H]1OC1CC(OC2CC(OC3CC(C)(O)C(O)C(C)O3)C(O)C(C)O2)C(O)C(C)O1 (stereo partly drawn)", "class label": "active"}
{"molecule": "C#Cc1cccc(Nc2ncnc3cc(OCCOC)c(OCCOC)cc23)c1", "class label": "inactive"}

Task item: Field: outcome | Entry: Cc1[nH]c(/C=C2\C(=O)Nc3ccc(F)cc32)c(C)c1C(=O)NC[C@H](O)CN1CCOCC1
Reply: inactive

Task item: Field: outcome | Entry: Cc1ccc(NC(=O)c2ccc(CN3CC[C@H](N(C)C)C3)c(C(F)(F)F)c2)cc1Nc1nccc(-c2cncnc2)n1
Reply: active

Task item: Field: outcome | Entry: O=C(c1ccccc1)C(c1ccccc1)N1CCOCC1 (stereo not drawn)
Reply: inactive
